# experimentalSystem: human CD33 L148A (human, UniProt P20138 18-364)
# Sequence (P20138 18-364 L148A limits assumed): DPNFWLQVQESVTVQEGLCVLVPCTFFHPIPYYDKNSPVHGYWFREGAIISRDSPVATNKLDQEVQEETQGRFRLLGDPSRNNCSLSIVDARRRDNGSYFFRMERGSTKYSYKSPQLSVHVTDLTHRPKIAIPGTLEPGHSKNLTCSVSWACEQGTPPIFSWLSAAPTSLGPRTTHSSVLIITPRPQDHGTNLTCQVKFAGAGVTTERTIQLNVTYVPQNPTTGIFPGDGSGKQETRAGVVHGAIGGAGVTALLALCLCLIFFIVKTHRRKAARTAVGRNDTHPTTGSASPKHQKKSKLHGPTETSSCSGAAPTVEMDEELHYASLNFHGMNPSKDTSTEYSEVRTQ
# protocolText: flow cytometry on HEK293-T, alanine scan
Reported Mean % WT Binding by item:
Form entry: value (% WT binding) — number only.

In the examples that follow, each entry is paired with its recorded Mean % WT Binding.
binder	Mean % WT Binding / % WT binding
Refmab #3 (antibody, V domains shown, The alanine scan used IgG or Fab) VH: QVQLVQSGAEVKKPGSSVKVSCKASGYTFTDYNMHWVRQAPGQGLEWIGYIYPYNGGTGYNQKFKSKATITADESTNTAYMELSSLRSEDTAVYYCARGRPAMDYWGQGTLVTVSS VL: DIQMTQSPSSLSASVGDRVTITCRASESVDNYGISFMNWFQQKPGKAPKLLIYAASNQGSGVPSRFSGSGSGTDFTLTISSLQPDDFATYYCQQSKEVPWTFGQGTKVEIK	108
Refmab #2 (antibody, V domains shown, The alanine scan used IgG or Fab) VH: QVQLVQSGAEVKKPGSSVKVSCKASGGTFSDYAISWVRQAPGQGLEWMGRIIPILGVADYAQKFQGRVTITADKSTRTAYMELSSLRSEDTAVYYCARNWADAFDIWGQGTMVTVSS VL: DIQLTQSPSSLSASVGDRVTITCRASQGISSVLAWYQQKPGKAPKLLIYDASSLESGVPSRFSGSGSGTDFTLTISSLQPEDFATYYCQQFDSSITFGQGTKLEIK	119
Refmab #4 (antibody, V domains shown, The alanine scan used IgG or Fab) VH: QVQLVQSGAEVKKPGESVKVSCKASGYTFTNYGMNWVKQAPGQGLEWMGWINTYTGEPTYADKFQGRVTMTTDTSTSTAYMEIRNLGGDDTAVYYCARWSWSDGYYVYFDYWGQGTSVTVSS VL: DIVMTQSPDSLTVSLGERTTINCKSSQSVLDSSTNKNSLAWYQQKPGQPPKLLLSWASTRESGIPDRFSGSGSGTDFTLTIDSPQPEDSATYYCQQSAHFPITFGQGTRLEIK	113

Would you kindly look at the next entry?
Lookup: Quick one: Mean % WT Binding for Refmab #1 (antibody, V domains shown, The alanine scan used IgG or Fab; also called hP67.6) VH: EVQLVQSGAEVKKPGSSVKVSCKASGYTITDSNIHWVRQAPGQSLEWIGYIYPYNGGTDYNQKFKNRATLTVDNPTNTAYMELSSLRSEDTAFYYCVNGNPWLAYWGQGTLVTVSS VL: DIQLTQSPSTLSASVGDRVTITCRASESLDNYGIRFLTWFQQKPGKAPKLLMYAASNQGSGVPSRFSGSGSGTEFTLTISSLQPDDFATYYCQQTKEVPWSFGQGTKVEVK ?
Found: 83.1
